// reported binding signal for each item listed
Target: GST-ATAF1 NAC domain (Arabidopsis thaliana, UniProt Q39013 7-158)
Sequence: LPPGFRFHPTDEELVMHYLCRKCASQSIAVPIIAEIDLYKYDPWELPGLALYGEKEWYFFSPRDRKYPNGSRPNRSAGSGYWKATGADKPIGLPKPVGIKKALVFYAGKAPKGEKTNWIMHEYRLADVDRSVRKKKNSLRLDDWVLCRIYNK
Test: universal protein binding microarray (PBM); transcription factors of Arabidopsis thaliana; high values mean tight binding
Conditions: protein: recombinant; tags: GST; chain copies: 2; dsDNA, one strand shown
Output spec: scalar in E-score, unitless text.

Worked cases, binding signal given:
sequence.chain: ACGGCACG
val: 0.286

sequence.chain: AGGTCAAC
val: 0.051

sequence.chain: ATTCCTTA
val: 0.126

sequence.chain: CACGCATC
val: 0.235

sequence.chain: CACGGCTC
val: 0.336

Asked: # input sequence: TTACGCAA ; wanted: its binding signal
Given back: 0.375

Asked: Bench note: what binding signal did GCGTAATA show?
Given back: 0.0519

Asked: I am curious: what binding signal value has been reported for AATGCCGT ?
Given back: 0.342

Asked: Dear colleague, I am looking for the recorded binding signal of the following sequence: AGACGTAA
Given back: 0.437

Asked: Entry under review: TAAGTTAA . Reported binding signal?
Given back: 0.157

Asked: // lookup binding signal for ACTAAGTA
Given back: 0.192

Source of measurements: paper PMC4081100
